target_or_system: human fibrillarin (hFBL) (Homo sapiens, UniProt P22087)
Construct: gene FBL; methyltransferase domain (residues 83–321)
Sequence (P22087 83-321): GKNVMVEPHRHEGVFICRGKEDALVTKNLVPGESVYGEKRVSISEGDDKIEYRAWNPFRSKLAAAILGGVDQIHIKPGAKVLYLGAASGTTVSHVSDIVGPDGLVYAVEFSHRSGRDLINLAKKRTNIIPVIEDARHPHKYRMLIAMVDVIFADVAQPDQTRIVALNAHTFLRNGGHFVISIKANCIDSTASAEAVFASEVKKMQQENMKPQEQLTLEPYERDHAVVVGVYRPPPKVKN
assay: ITC; also SPR (Kd […]), STD NMR and crystal structure
Type: binding
attribute_measured: Kd (µM)
# value in µM; strip the unit string

Query string: Using the record for C[S@@+](CC[C@H](N)C(=O)[O-])C[C@H]1O[C@@H](n2cnc3c(N)ncnc32)[C@H](O)[C@@H]1O [SAM] , report its Kd.
Result string: 14

* * *

target_or_system: human fibrillarin (hFBL) (Homo sapiens, UniProt P22087)
Construct: gene FBL; methyltransferase domain (residues 83–321)
assay: biochemical
Design: SPR binding affinity of compounds to human fibrillarin methyltransferase domain
condition_info: SPR
Reported pKd values are given for each entry in this list.
Interpret pKd as the negative base-10 log of the concentration measured in mol/L.

Solved cases below.
compound | pKd
C[S@@+](CC[C@H](N)C(=O)[O-])C[C@H]1O[C@@H](n2cnc3c(N)ncnc32)[C@H](O)[C@@H]1O | 4.47
N[C@@H](CCCNC(=O)Cc1cn2nc(C(F)(F)F)cc2c(=O)[nH]1)C(=O)O | 2.47

Query string: Using the record for N[C@@H](Cc1cccc(NC(=O)Cc2cn3nc(C(F)(F)F)cc3c(=O)[nH]2)c1)C(=O)O , report its pKd.
Result string: 2.58

Query string: Consider next the molecule Nc1cc(C(F)(F)F)ncn1 in the same way.
Result string: 2.57

Query string: Consider next the molecule FC(F)(F)c1cc(NC2CCOCC2)ncn1 in the same way.
Result string: 3.60

Query string: Consider next the molecule N[C@H](Cc1cccc(NC(=O)Cc2cn3nc(C(F)(F)F)cc3c(=O)[nH]2)c1)C(=O)O in the same way.
Result string: 3.29

Query string: Consider next the molecule Cc1cn2cc(C(F)(F)F)cc2c(=O)[nH]1 in the same way.
Result string: 3.28

Query string: Consider next the molecule FC(F)(F)c1cc(NC2CCNCC2)ncn1 in the same way.
Result string: 4.36
